Target: CDK4/CyclinD (Homo sapiens)
Sequence (P11802 whole entry, species assumed): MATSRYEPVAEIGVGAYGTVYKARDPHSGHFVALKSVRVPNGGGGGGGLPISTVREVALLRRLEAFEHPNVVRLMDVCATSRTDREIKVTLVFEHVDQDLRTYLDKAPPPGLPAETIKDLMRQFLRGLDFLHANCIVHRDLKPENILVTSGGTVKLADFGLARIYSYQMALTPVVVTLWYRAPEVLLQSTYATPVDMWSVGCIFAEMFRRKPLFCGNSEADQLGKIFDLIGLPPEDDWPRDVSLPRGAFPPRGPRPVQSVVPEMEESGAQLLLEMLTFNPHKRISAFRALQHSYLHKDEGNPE
Sequence (P24385 whole entry partner, species assumed): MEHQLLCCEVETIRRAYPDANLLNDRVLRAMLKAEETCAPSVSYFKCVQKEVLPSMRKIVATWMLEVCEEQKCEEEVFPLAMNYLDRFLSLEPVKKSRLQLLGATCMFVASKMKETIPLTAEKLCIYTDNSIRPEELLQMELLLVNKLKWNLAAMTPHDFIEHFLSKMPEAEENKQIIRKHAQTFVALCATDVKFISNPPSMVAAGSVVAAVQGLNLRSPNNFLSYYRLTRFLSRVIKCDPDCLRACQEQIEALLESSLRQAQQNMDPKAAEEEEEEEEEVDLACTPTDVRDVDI
Test: CDK4/CyclinD inhibition assay
Settings: mean of at least two independent experiments
Documented IC50 across a set of compounds
test readout: IC50 (µM)

1. Cc1nc(Nc2ccc(NC(=S)Nc3ccccc3)cc2)nc2nc(SCc3ccccc3)[nH]c(=O)c12 [Compound 6c] = 3.11
2. Cc1nc(Nc2ccc(NC(=S)Nc3ccccc3)cc2)nc2nc(Nc3cccc(Cl)c3)[nH]c(=O)c12 [Compound 7e] = 2.55
3. Cc1nc(Nc2ccc(NC(=S)Nc3ccccc3)cc2)nc2nc(NCc3ccccc3)[nH]c(=O)c12 [Compound 7b] = 4.85
4. Cc1cc(C)nc(NS(=O)(=O)c2ccc(Nc3nc(C)c4c(=O)[nH]c(Nc5cccc(Cl)c5)nc4n3)cc2)n1 [Compound 7f] = 0.86

###

Biological target: CDK4/CyclinD (Homo sapiens)
Assay: CDK4/CyclinD inhibition assay
Format: biochemical
Conditions: mean of at least two independent experiments
test readout: IC50 CDK4/CyclinD

1) Cc1cc(C)nc(NS(=O)(=O)c2ccc(Nc3nc(C)c4c(=O)[nH]c(Nc5ccc(S(=O)(=O)O)cc5)nc4n3)cc2)n1 [Compound 7i] = no activity
2) Cc1cc(C)nc(NS(=O)(=O)c2ccc(Nc3nc(C)c4c(=O)[nH]c(NCc5ccccc5)nc4n3)cc2)n1 [Compound 7c] = no activity
3) O=c1[nH]c(Nc2ccc(S(=O)(=O)O)cc2)nc2nc(Nc3ccc(NC(=S)Nc4ccccc4)cc3)nc(-c3ccc(O)cc3O)c12 [Compound 7g] = very poor activity
4) O=c1[nH]c(SCc2ccccc2)nc2nc(Nc3ccc(NC(=S)Nc4ccccc4)cc3)nc(-c3ccc(O)cc3O)c12 [Compound 6a] = no activity
5) O=c1[nH]c(Nc2cccc(Cl)c2)nc2nc(Nc3ccc(NC(=S)Nc4ccccc4)cc3)nc(-c3ccc(O)cc3O)c12 [Compound 7d] = very poor activity
6) Cc1nc(Nc2ccc(NC(=S)Nc3ccccc3)cc2)nc2nc(Nc3ccc(S(=O)(=O)O)cc3)[nH]c(=O)c12 [Compound 7h] = no activity

###

Documented pIC50 across a set of compounds
Target: CDK2/CyclinA (Homo sapiens)
Construct: hexa-histidine (N)
Test: CDK2/cyclinA enzymatic activity inhibition assay (32P-ATP, histone H1)
Details: mean of at least two independent experiments
pIC50: −log10 of the molar value.
test readout: pIC50

1) Cc1nc(Nc2ccc(NC(=S)Nc3ccccc3)cc2)nc2nc(SCc3ccccc3)[nH]c(=O)c12 = 5.82
2) Cc1cc(C)nc(NS(=O)(=O)c2ccc(Nc3nc(C)c4c(=O)[nH]c(NCc5ccccc5)nc4n3)cc2)n1 = 5.59
3) Cc1nc(Nc2ccc(NC(=S)Nc3ccccc3)cc2)nc2nc(Nc3cccc(Cl)c3)[nH]c(=O)c12 = 6.60
4) Cc1cc(C)nc(NS(=O)(=O)c2ccc(Nc3nc(C)c4c(=O)[nH]c(SCc5ccccc5)nc4n3)cc2)n1 = 5.60
5) Cc1nc(Nc2ccc(NC(=S)Nc3ccccc3)cc2)nc2nc(Nc3ccc(S(=O)(=O)O)cc3)[nH]c(=O)c12 = 5.22

###

Molecular target: human EGFR tyrosine kinase domain (Homo sapiens)
Sequence (P00533 712-979 limits assumed): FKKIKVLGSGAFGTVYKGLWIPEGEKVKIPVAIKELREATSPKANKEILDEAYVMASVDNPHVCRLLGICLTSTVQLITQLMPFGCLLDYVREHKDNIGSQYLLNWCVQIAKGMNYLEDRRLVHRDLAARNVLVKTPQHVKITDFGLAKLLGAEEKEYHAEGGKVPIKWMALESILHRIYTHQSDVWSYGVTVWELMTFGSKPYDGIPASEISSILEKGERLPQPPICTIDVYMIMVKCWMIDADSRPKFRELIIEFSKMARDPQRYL
Entries whose IC50 is below 7 µM take Met; entries at or above 7 µM take Not met.

1. O=c1[nH]c(NCc2ccccc2)nc2nc(Nc3ccc(NC(=S)Nc4ccccc4)cc3)nc(-c3ccc(O)cc3O)c12 = Not met
2. Cc1nc(Nc2ccc(NC(=S)Nc3ccccc3)cc2)nc2nc(Nc3cccc(Cl)c3)[nH]c(=O)c12 = Met
3. O=c1[nH]c(SCc2ccccc2)nc2nc(Nc3ccc(NC(=S)Nc4ccccc4)cc3)nc(-c3ccc(O)cc3O)c12 = Not met
4. O=c1[nH]c(Nc2ccc(S(=O)(=O)O)cc2)nc2nc(Nc3ccc(NC(=S)Nc4ccccc4)cc3)nc(-c3ccc(O)cc3O)c12 = Not met
5. Cc1cc(C)nc(NS(=O)(=O)c2ccc(Nc3nc(C)c4c(=O)[nH]c(NCc5ccccc5)nc4n3)cc2)n1 = Met
6. Cc1nc(Nc2ccc(NC(=S)Nc3ccccc3)cc2)nc2nc(Nc3ccc(S(=O)(=O)O)cc3)[nH]c(=O)c12 = Not met
7. Cc1cc(C)nc(NS(=O)(=O)c2ccc(Nc3nc(-c4ccc(O)cc4O)c4c(=O)[nH]c(SCc5ccccc5)nc4n3)cc2)n1 = Met
